The origin of these recorded values is PubChem BioAssay AID1224903.

# Study System: Chromobox protein homolog 7 (Homo sapiens) (UniProt O95931)
# Sequence (O95931 whole entry, looked up): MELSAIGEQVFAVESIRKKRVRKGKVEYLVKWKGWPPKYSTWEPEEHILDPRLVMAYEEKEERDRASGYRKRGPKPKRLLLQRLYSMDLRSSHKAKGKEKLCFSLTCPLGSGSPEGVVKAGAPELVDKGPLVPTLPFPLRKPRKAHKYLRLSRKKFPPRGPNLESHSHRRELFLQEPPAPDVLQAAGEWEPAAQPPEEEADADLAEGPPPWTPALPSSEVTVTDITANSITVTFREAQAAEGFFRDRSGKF
# Assay Comment: blockers of CBX7 binding to H3K27me3 peptide – biochemical, AlphaScreen, primary screen (AID 1224903)
# Conditions: AlphaScreen His6-CBX7 / biotin-H3K27me3 peptide binding, stronger effect = lower value
Out of some 66,000 compounds screened, about 720 (1.1%) were called active. What follows is part of a selection rich in actives, with near analogues and random picks from the rest.
Labelling: normalised signal (fraction of DMSO) reported below 0.9 becomes True; at or above becomes False.

Known results for compounds:
Identify whether the compound `CN(CCCNC(=O)c1cc(-c2ccncc2)nc2ccccc12)C1CCCCC1` records normalised signal (fraction of DMSO) below 0.9. False

I wonder whether Cc1nc2sc(C(c3cccs3)N3CCc4ccccc4C3)c(O)n2n1 (stereo unspecified) has normalised signal (fraction of DMSO) below 0.9. Can you tell? False

In plain terms, does `Cc1ccc(Cn2nnc3c(=O)n(Cc4c(F)cccc4Cl)cnc32)cc1` come in under 0.9 for normalised signal (fraction of DMSO)? True

Is normalised signal (fraction of DMSO) strictly under 0.9 for the entry `Cc1ccc(C)c(CN2C(=O)CSc3ccc(C(=O)NCCCN4CCCCCC4)cc32)c1` ? False

# strict comparison: is reported normalised signal (fraction of DMSO) < 0.9? input = `Cc1cccc(C)c1NC(=O)C1(N(CCc2c[nH]c3ccccc23)C(=O)c2ccccc2F)CCCCC1` True

Now for a further compound.
Decide: normalised signal (fraction of DMSO) of `Cc1cccc(C)c1Nc1c(-c2ccsc2)nc2cnccn12` strictly below 0.9? False

----------
# Study System: Chromobox protein homolog 7 (Homo sapiens) (UniProt O95931)
# Assay Comment: blockers of CBX7 binding to H3K27me3 peptide – biochemical, AlphaScreen, primary screen (AID 1224903)
# Conditions: AlphaScreen His6-CBX7 / biotin-H3K27me3 peptide binding, stronger effect = lower value; measured here: z-score of CBX7 signal
The campaign covered roughly 66,000 compounds. About 720 (1.1%) were called active. The sample holds actives, similar compounds and a random draw of the others, so the mix is not that of the screen.
Labelling field: enter Yes if recorded z-score is less than 0.6. Enter No if it equals or exceeds that cut-off.

Regarding `Cc1cc(N2CCCCC2)nc2ccc(NC(=O)c3cnccn3)cc12` , kindly confirm whether its z-score is beneath 0.6. Yes

Problem: For the molecule COc1ccc(Cl)cc1NC(=O)C1c2cc(OC)c(OC)cc2C(=O)N(C)C1c1ccccc1F (configuration not stated) , is z-score under 0.6? No

Others:
State whether 0.6 exceeds z-score recorded for `CCCNC(=O)c1nn2c(C(F)(F)F)cc(-c3ccco3)nc2c1Br` . No

Does this molecule meet the criterion z-score < 0.6? Cc1ccc2c(c1)N(C(C)C(=O)NCc1ccc(F)cc1Cl)C(=O)CO2 (configuration not stated) Yes

Please determine if `Cc1sc2ncnc(NCC3(c4ccccc4)CCCC3)c2c1C` is below 0.6 in terms of z-score. No

Is it true that z-score reported for `Cc1ccc(-c2nnc(Nc3ccc(C(=O)N(C)C)cc3)c3ccccc23)cc1S(N)(=O)=O` is less than 0.6? No

State whether 0.6 exceeds z-score recorded for `Cc1ccc(C)c(CN2C(=O)CSc3ccc(C(=O)NCCCN4CCCCCC4)cc32)c1` . Yes

----------
# Study System: Chromobox protein homolog 7 (Homo sapiens) (UniProt O95931)
# Assay Comment: blockers of CBX7 binding to H3K27me3 peptide – biochemical, AlphaScreen, primary screen (AID 1224903)
# Conditions: AlphaScreen His6-CBX7 / biotin-H3K27me3 peptide binding, stronger effect = lower value; measured here: z-score of CBX7 signal
Out of some 66,000 compounds screened, about 720 (1.1%) were called active. The entries come from a sample that favours actives as a whole.
Give measured z-score for each item. Keep answers brief.
Numbers only.

Sample records with z-score:
Consider the compound `Cc1ccc(Nc2cc(C(=O)O)c3ccccc3n2)cc1` and give its recorded z-score. 1.21

Assign z-score to the following record: `CC(=O)Nc1ccc(S(=O)(=O)NCc2ccc(C(=O)NCCc3ccc(C)cc3)cc2)cc1` 1.84

Can you give me z-score for all of these, one by one?
1. CCOc1ccc2nc(NC(=O)c3ccc(OC)cc3)sc2c1
2. Cc1cc(N2CCCCC2)nc2ccc(NC(=O)CCC(=O)N3CCN(c4ccc(F)cc4)CC3)cc12
3. c1ccc(SCCc2ccc3cc(-c4ccccc4)cn3c2)cc1
4. O=C(CCCN1C(=O)CSc2ncccc21)NC1CCN(Cc2ccccc2)CC1
5. COCCCNC(=O)c1c[nH]c2ccc(S(=O)(=O)N(C)c3cccc(C)c3)cc2c1=O

1. 1.46
2. 0.868
3. -0.335
4. 0.27
5. 0.264

----------
# Study System: Chromobox protein homolog 7 (Homo sapiens)
# Assay Comment: blockers of CBX7 binding to H3K27me3 peptide – biochemical, AlphaScreen, primary screen (AID 1224903)
# Conditions: AlphaScreen His6-CBX7 / biotin-H3K27me3 peptide binding, stronger effect = lower value; measured here: z-score of CBX7 signal
Out of some 66,000 compounds screened, about 720 (1.1%) were called active. Shown is part of a subset that was picked to be rich in actives.
Measurement Kind: z-score
One number for each entry.

Give the measured z-score for `COc1cccc(CNc2ccc3c(c2)ncn3C)c1` -1.96

Give the reported value of z-score for this record: `CCOC(=O)c1cnc2c(C)cc(C)cc2c1Nc1cccc(OC)c1` 0.43

Specify reported z-score for the molecule shown: CCCN1C(=O)C(O)(CC(=O)c2ccc(CC)cc2)c2cc(Br)ccc21 (stereo unspecified) -1.07

Answer with the recorded z-score for the molecule listed here: `CCOC(=O)c1cnc2c(C)cc(C)cc2c1Nc1ccccc1CC` 1.45

Supply recorded z-score for `COc1ccc(-c2nnc(NC(=O)c3ccc(S(=O)(=O)N4CCC(C)CC4)cc3)o2)cc1` here. -4.6

Please give the documented z-score of `O=C(NCCCc1ccccc1)c1ccc2c(c1)N(Cc1ccccc1)CCS2` -0.011

Give me z-score for each of these molecules, listed below.
1. O=C(CSCc1cnn(-c2ccccc2)c1-n1cccc1)NC1CC1
2. CC(C)c1ccc(C(=O)CC2(O)C(=O)N(Cc3ccccc3)c3ccc(Br)cc32)cc1 (stereo unspecified)
3. Cc1ccc(C2CC(c3ccc(C)cc3)n3ncnc3N2)cc1 (stereo unspecified)
4. CCn1cnc2cc(NCc3ccccn3)ccc21
5. CCOC(=O)c1cnc2c(C)cc(C)cc2c1Nc1ccc(N2CCOCC2)cc1

1. -0.615
2. -1.19
3. 0.839
4. -5.49
5. -16.2

----------
# Study System: Chromobox protein homolog 7 (Homo sapiens) (UniProt O95931)
# Assay Comment: blockers of CBX7 binding to H3K27me3 peptide – biochemical, AlphaScreen, primary screen (AID 1224903)
# Conditions: AlphaScreen His6-CBX7 / biotin-H3K27me3 peptide binding, stronger effect = lower value; measured here: z-score of CBX7 signal
Hit rate of the full screen: of about 66,000 compounds, about 720 (1.1%) were called active. The list comes from a sample in which actives are over-represented; it also holds close analogues and randomly drawn compounds.
I'd be grateful if you could share measured z-score for these entries.

// solved cases for z-score follow
Answer with the recorded z-score of `CCCCNC(=O)CN1C(=O)COc2ccccc21` only. -4.69

State, in one line, measured z-score of CCc1c(-c2ccccc2)nc2ccccc2c1C(=O)NCC1COc2ccccc2O1 (stereo unspecified) -0.941

Please give the documented z-score of `O=C(CN1C(=O)COc2ccccc21)NCCN1CCc2ccccc2C1` 1.85

Read the entry `COc1ccc(-c2cc(C(=O)NCCCn3ccnc3)no2)cc1` and write its reported z-score. -0.364

Tell me its z-score given `CCCN1CCN(CCCNC(=O)CN2C(=O)COc3ccccc32)CC1` as the entry. 0.274

Respond only with z-score recorded for CCN1CCCC1CNC(=O)c1ccc2c(c1)N(Cc1ccccc1)CCS2 (stereo unspecified) -0.106

Using known records, supply z-score for `Cn1c(C(=O)NCCCSC2CCCCC2)cc2sc(Cl)cc21` 0.498

Give the measured z-score for `CCCCNC(=O)c1cc(Nc2ccc(CC)cc2)nc2ccccc12` -0.251

Answer with the recorded z-score for the compound listed here: `CC(=O)Nc1ccccc1-c1nc2ccccc2n(C)c1=O` 3.65

Fill in reported z-score for this entry: `Cc1ccc(-c2nc(C#N)c(NCCCn3ccnc3)o2)cc1` -0.658

// moving on: another record for z-score
Complete the entry with z-score for `Cc1ccc(-n2c(Cc3cccn3C)nnc2SCC(=O)Nc2ccc(C)c(Cl)c2)cc1` -1.77

----------
# Study System: Chromobox protein homolog 7 (Homo sapiens) (UniProt O95931)
# Assay Comment: blockers of CBX7 binding to H3K27me3 peptide – biochemical, AlphaScreen, primary screen (AID 1224903)
# Conditions: AlphaScreen His6-CBX7 / biotin-H3K27me3 peptide binding, stronger effect = lower value
In all, about 66,000 compounds went through this assay and about 720 (1.1%) were called active. The sample holds actives, similar compounds and a random draw of the others, so the mix is not that of the screen.
Friendly reminder: normalised signal (fraction of DMSO) below 1 is class 1, at or above is class 0.

Example entries and their recorded answers appear below.
I'd appreciate it if you could check whether `CC(C)NC(=O)c1ccc2nc(-c3ccccc3)c(-c3ccccc3)nc2c1` has normalised signal (fraction of DMSO) smaller than 1. class 0

Given `O=C(NC1CC1)c1ccc2c(c1)NC(=O)c1ccccc1N2` , is recorded normalised signal (fraction of DMSO) strictly lower than 1? class 1

# strict comparison: is reported normalised signal (fraction of DMSO) < 1? input = `COc1cccc(C(=O)Nc2ccc3oc(-c4ccccc4)nc3c2)c1` class 0

Threshold test, normalised signal (fraction of DMSO) < 1: `Cc1ccc(Nc2cc(C(=O)O)c3ccccc3n2)cc1` class 0

Does this compound meet the criterion normalised signal (fraction of DMSO) < 1? CC1CCC(NC(=O)C2c3ccccc3C(=O)N2Cc2ccc3c(c2)OCO3)CC1 (configuration not stated) class 0

Problem: For the compound `COc1cc(OC)cc(C(=O)Nc2ccc(-c3nc4ccccc4o3)c(O)c2)c1` , is normalised signal (fraction of DMSO) under 1? class 1

Further cases:
Please state whether normalised signal (fraction of DMSO) is below 1 for Cc1cccc(N(C)C(=O)C(NS(=O)(=O)c2ccc3c(c2)CCC(=O)N3)c2ccccc2)c1 (configuration not stated) class 0

Please let me know if `Cc1ccc(Cl)cc1N1CCN(C(=O)Cn2ncc3c2-c2ccccc2OC3)CC1` shows normalised signal (fraction of DMSO) below 1. class 1

Check if normalised signal (fraction of DMSO) falls below 1 for `CC1(C)C=c2c(nnc3ncnn23)=C(O)C1` . class 1
